- target-of-assay: hGIPR (Homo sapiens, UniProt P48546)
- Sequence (P48546 22-466): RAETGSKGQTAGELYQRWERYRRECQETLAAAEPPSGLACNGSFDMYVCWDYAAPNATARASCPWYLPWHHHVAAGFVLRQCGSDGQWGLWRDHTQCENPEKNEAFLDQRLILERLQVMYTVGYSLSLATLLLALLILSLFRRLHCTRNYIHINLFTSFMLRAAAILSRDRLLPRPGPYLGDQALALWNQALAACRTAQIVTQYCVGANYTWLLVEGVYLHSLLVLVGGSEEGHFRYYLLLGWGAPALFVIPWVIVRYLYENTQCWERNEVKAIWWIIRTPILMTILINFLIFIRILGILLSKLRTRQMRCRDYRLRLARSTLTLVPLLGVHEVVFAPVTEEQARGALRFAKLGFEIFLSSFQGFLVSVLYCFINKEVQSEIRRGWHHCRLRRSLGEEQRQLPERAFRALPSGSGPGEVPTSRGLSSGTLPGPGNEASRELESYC
- protocol-summary: Functional cAMP activity in the presence of 1% HSA
- Assay type: cell-based
- condition-details: read-out: cAMP Rel EC50, hGIPR
Starred links: 1 amine or outer side, 2 acyl side, 3 side chain; linkers in the order of their positions; H or OH if unused. Non-standard residues stand in square brackets, D forms with d. Groups on a side chain read outwards from the residue. No end group written: not given here. *: point of attachment. C20 diacid = O=C(O)CCCCCCCCCCCCCCCCCCC(=O)*; C18 diacid = O=C(O)CCCCCCCCCCCCCCCCC(=O)*; αMePhe(2-F) = C[C@](N)(Cc1ccccc1F)C(=O)O; γGlu = O=C(O)[C@H](CCC(=O)[*:2])N[*:1]; αMe4Pal = C[C@](N)(Cc1ccncc1)C(=O)O; αMeY = C[C@](N)(Cc1ccc(O)cc1)C(=O)O; 4Pal = N[C@@H](Cc1ccncc1)C(=O)O; αMeL = CC(C)C[C@](C)(N)C(=O)O; αMeS = C[C@](N)(CO)C(=O)O; Orn = NCCC[C@H](N)C(=O)O; AEEA = NCCOCCOCC(=O)O; Aib = CC(C)(N)C(=O)O
quantity-kind: EC50 (nM)
// note: answer is a bare numeric in nM

Solved entries (count: 4):
substance	unit-of-measurement	EC50
H-Y[Aib]QGT[αMePhe(2-F)]TSD[4Pal][αMeS]ILLD[Orn]K([γGlu-γGlu-C18 diacid])AQ[Aib][Orn]FI[dE]YLIEGGPSSGEPPPSGTE-NH2 [Example 531]	nM	5.2
H-Y[Aib]QGTFTSD[4Pal]S[Orn][αMeL]LD[Orn]K([γGlu-γGlu-C18 diacid])AQ[αMe4Pal]AFIEYLIE[Aib]GPSSGAPPPSGS-NH2 [Example 939]	nM	14.1
H-Y[Aib]QGT[αMePhe(2-F)]TSD[4Pal][αMeS]I[αMeL]LD[Orn]K([γGlu-γGlu-C18 diacid])AQ[αMe4Pal]EFI[dE][αMeY]LIEGGPPS[Aib][Orn]PPP[Orn]SE-NH2 [Example 1228]	nM	0.522
H-Y[Aib]QGTFTSD[4Pal]SQ[αMeL]LDKK([γGlu-γGlu-C18 diacid])AQ[αMe4Pal]AFIEYLIE[Aib]GPSSGAPPPSGSEE-NH2 [Example 899]	nM	15.6

Look at this substance and give its reported EC50. Y[Aib]QGTFTSD[4Pal]SQ[αMeL]LDKK([AEEA-γGlu-C18 diacid])AQ[αMe4Pal]AFIEYLIE[dA]GPSSGAPPPSGS-NH2 [Example 829]
22.4

Moving on to the next substance: Y[Aib]QGT[αMePhe(2-F)]TSD[4Pal][αMeS]I[αMeL]LD[Orn]K([γGlu-γGlu-C18 diacid])AQ[Aib][Orn]FI[dE][αMeY]LQEGGPSSGEPPPEGTE-NH2 [Example 503]
2.02

Moving on to the next substance: H-Y[Aib]QGT[αMePhe(2-F)]TSD[4Pal][αMeS]ILLD[Orn]K([γGlu-γGlu-C18 diacid])AQ[Aib][Orn]FI[dE][αMeY]LQEGGPSSGEPPPSGAEE-NH2 [Example 575]
16.2

Moving on to the next substance: H-Y[Aib]QGT[αMePhe(2-F)]TSD[4Pal]SILLDKK([γGlu-γGlu-C18 diacid])AQ[Aib]AFIEYLEEGGPSSGAPPPSGGEE-NH2 [Example 612]
7.58

Moving on to the next substance: H-Y[Aib]QGTFTSDYSI[αMeL]LDKQAAK([AEEA-AEEA-γGlu-C20 diacid])QFVEWLIA[Aib]GPSSGEPPPSEG-NH2 [Example 326]
83.7

Moving on to the next substance: H-Y[Aib]QGT[αMePhe(2-F)]TSD[4Pal]SILLDKK([γGlu-γGlu-C18 diacid])AQ[Aib]AFIEYLEEGGPSSGAPPPSGSGE-NH2 [Example 618]
4.63

Moving on to the next substance: H-Y[Aib]QGT[αMePhe(2-F)]TSD[4Pal]SILLDKK([γGlu-γGlu-C18 diacid])AQ[Aib]AFIEYLEEGGPSSGEPPPSGTEE-NH2 [Example 608]
8.51
